Data provenance: the supplement of paper PMC8882468

CTG-3D luminescence at 96 h values, listed per item
Tested on: HCI-023 (organoid from a triple-negative breast cancer xenograft)
ASSAY_SUMMARY: CTG-3D luminescence at 96 h relative to day-0 seeding control (ratio to day 0); higher = more growth / less cytotoxicity; PDxO 3D drug screen, 96 h, CTG-3D normalised to day-0 seeding control.
EXPERIMENTAL_SETUP: 12.5 pM; days in culture: 128
Number only, no unit.

Example entries begin here.
Item NC(=O)c1cccc2cn(-c3ccc([C@@H]4CCCNC4)cc3)nc12 [niraparib] has what recorded CTG-3D luminescence at 96 h? 1.57

Item Nc1ccn([C@@H]2O[C@H](CO)[C@@H](O)C2(F)F)c(=O)n1 [gemcitabine] has what recorded CTG-3D luminescence at 96 h? 1.62

Item COc1cccc2c1C(=O)c1c(O)c3c(c(O)c1C2=O)C[C@@](O)(C(=O)CO)C[C@@H]3O[C@H]1C[C@H](N)[C@H](O)[C@H](C)O1 [doxorubicin] has what recorded CTG-3D luminescence at 96 h? 1.92

Item CCN1CCN(Cc2ccc(Nc3ncc(F)c(-c4cc(F)c5nc(C)n(C(C)C)c5c4)n3)nc2)CC1 [abemaciclib] has what recorded CTG-3D luminescence at 96 h? 1.77

Item CS(=O)(=O)c1ccc(C(=O)Nc2ccc(Cl)c(-c3ccccn3)c2)c(Cl)c1 [vismodegib] has what recorded CTG-3D luminescence at 96 h? 1.29

Item O=C(c1ccc(F)c(F)c1Nc1ccc(I)cc1F)N1CC(O)([C@@H]2CCCCN2)C1 [cobimetinib] has what recorded CTG-3D luminescence at 96 h? 1.67

Further cases:
Item C[C@H](NC(=O)CCC(F)(F)F)C(=O)N[C@@H]1C(=O)N(CCO)c2ncccc2-c2ccccc21 [crenigacestat] has what recorded CTG-3D luminescence at 96 h? 1.4

Item NC(=O)Nc1cc(-c2cccc(F)c2)sc1C(=O)N[C@H]1CCCNC1 [AZD7762] has what recorded CTG-3D luminescence at 96 h? 1.55

---

CTG-3D luminescence at 96 h values, listed per item
Test system: HCI-001 (organoid from a triple-negative breast cancer xenograft)
ASSAY_SUMMARY: CTG-3D luminescence at 96 h relative to day-0 seeding control (ratio to day 0); higher = more growth / less cytotoxicity; PDxO 3D drug screen, 96 h, CTG-3D normalised to day-0 seeding control.
EXPERIMENTAL_SETUP: 1 µM; days in culture: 269
Number only, no unit.

Item `NC(=O)Nc1cc(-c2cccc(F)c2)sc1C(=O)N[C@H]1CCCNC1` has what recorded CTG-3D luminescence at 96 h? 0.48

Okay, now this compound:
Item `CS(=O)(=O)c1ccc(C(=O)Nc2ccc(Cl)c(-c3ccccn3)c2)c(Cl)c1` has what recorded CTG-3D luminescence at 96 h? 1.13

---

CTG-3D luminescence at 96 h values, listed per item
Tested on: HCI-015 (organoid from a triple-negative breast cancer xenograft)
ASSAY_SUMMARY: CTG-3D luminescence at 96 h relative to day-0 seeding control (ratio to day 0); higher = more growth / less cytotoxicity; PDxO 3D drug screen, 96 h, CTG-3D normalised to day-0 seeding control.
EXPERIMENTAL_SETUP: 10 µM; days in culture: 191
Number only, no unit.

Item CN(Cc1cnc2nc(N)nc(N)c2n1)c1ccc(C(=O)N[C@@H](CCC(=O)O)C(=O)O)cc1 [methotrexate] has what recorded CTG-3D luminescence at 96 h? 0.977

Item `Cc1cc(Nc2ncc(Cl)c(Nc3ccccc3S(=O)(=O)C(C)C)n2)c(OC(C)C)cc1C1CCNCC1` has what recorded CTG-3D luminescence at 96 h? 0.00448

Item C[C@]12CC[C@@H]3c4ccc(O)cc4C[C@@H](CCCCCCCCC[S+]([O-])CCCC(F)(F)C(F)(F)F)[C@H]3[C@@H]1CC[C@@H]2O (stereo partly specified) has what recorded CTG-3D luminescence at 96 h? 1.23

Item `C=CCn1c(=O)c2cnc(Nc3ccc(N4CCN(C)CC4)cc3)nc2n1-c1cccc(C(C)(C)O)n1` has what recorded CTG-3D luminescence at 96 h? 0.246

Item `C=CC(=O)N1CCC[C@@H](n2nc(-c3ccc(Oc4ccccc4)cc3)c3c(N)ncnc32)C1` has what recorded CTG-3D luminescence at 96 h? 0.68

Item `CC[C@H](NC(=O)[C@H](C)NC)C(=O)N1C[C@@H](O)C[C@H]1Cc1c(-c2[nH]c3cc(F)ccc3c2C[C@@H]2C[C@H](O)CN2C(=O)[C@H](CC)NC(=O)[C@H](C)NC)[nH]c2cc(F)ccc12` has what recorded CTG-3D luminescence at 96 h? 0.224
